Target: rat brain N-type calcium channel subunits (α1B+α2δ+β1b cDNA subunits) (Rattus norvegicus, UniProt Q02294)
Construct: expressed in transfected cells; host or cells: HEK 293
Sequence (Q02294 whole entry): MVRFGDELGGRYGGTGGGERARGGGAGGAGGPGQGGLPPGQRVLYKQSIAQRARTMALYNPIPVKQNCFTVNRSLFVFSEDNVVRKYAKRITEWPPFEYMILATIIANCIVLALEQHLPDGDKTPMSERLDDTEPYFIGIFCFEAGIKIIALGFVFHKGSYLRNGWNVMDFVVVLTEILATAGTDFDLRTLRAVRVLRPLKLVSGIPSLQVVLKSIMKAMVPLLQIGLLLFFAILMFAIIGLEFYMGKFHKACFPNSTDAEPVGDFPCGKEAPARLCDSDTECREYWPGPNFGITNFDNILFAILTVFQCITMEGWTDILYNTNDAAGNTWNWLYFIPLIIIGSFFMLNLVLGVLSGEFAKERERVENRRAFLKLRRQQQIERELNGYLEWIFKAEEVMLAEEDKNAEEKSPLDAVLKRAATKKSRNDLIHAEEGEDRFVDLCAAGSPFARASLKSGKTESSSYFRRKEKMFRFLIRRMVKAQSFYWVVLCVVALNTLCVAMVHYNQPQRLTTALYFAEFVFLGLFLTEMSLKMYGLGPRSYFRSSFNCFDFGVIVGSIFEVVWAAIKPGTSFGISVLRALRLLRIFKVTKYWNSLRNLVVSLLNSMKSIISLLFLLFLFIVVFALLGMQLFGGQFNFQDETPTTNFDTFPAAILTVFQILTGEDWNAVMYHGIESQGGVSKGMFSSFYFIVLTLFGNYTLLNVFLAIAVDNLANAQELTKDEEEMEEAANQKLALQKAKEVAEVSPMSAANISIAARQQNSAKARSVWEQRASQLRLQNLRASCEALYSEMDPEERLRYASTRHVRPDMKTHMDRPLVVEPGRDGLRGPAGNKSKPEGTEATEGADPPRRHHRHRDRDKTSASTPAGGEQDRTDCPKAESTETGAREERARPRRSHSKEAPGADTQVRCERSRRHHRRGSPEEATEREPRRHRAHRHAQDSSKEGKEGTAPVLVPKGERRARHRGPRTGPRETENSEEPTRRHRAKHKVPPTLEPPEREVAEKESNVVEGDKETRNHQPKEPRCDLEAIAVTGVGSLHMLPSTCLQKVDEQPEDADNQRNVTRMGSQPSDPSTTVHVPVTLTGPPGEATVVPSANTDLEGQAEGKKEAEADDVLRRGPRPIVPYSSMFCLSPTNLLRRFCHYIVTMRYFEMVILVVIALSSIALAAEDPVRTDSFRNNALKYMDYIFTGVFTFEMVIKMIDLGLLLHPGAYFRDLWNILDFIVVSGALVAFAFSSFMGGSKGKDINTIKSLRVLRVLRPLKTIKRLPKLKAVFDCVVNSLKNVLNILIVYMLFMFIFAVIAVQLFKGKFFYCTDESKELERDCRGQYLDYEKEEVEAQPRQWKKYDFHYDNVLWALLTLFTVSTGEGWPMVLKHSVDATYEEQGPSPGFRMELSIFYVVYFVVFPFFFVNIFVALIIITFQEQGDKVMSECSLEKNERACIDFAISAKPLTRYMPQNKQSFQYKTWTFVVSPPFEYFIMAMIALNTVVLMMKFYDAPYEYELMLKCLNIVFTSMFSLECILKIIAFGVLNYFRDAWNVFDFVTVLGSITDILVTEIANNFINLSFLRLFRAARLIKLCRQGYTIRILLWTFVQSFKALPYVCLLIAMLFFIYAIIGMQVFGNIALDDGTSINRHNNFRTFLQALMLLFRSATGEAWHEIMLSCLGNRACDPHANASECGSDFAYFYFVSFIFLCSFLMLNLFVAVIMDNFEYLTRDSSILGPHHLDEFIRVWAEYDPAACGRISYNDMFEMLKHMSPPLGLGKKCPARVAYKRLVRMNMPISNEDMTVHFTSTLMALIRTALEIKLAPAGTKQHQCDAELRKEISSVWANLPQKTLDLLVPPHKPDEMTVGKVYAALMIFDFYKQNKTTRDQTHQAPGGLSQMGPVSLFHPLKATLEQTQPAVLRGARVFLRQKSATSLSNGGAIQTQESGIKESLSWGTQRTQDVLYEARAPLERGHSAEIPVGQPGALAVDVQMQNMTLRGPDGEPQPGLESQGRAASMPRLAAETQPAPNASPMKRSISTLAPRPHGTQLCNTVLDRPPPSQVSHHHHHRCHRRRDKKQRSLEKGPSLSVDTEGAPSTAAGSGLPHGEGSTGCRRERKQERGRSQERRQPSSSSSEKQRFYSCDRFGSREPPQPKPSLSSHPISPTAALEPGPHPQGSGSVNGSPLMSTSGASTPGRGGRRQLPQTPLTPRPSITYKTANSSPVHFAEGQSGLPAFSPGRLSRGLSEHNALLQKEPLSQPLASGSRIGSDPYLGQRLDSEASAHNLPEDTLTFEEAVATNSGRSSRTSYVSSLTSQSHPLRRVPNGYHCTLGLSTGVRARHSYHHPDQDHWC
Test: N-type calcium channel block, whole cell patch clamp in HEK 293 cells
Type: cell-based
Details: pulse frequency 0.2 Hz (frequency dependent block); holding potential −80 mV to +10 mV; read-out: IC50 @ 0.2 Hz
log10(IC50) reference
The figures below represent log10 of IC50, where IC50 is stated in µM.

# example entries with known answers
* O=C(CCCCC(c1ccc(F)cc1)c1ccc(F)cc1)NC/C=C/CNC(=O)c1ccc(Cl)cc1 [Compound P18] | -0.52
* COc1c(C(C)(C)C)cc(C(=O)NC/C=C/CNC(=O)CCCCC(c2ccc(F)cc2)c2ccc(F)cc2)cc1C(C)(C)C [Compound P12] | -0.84
* CC(C)c1ccc(C(=O)NCCCCNC(=O)CCCCC(c2ccc(F)cc2)c2ccc(F)cc2)cc1 [Compound P37] | -0.52
* CC(C)(C)c1ccc(C(=O)NCCCCNC(=O)CCCCC(c2ccc(F)cc2)c2ccc(F)cc2)cc1 [Compound P34] | -0.78
* CC(C)(C)c1ccc(C(=O)NC/C=C\CNC(=O)CCCCC(c2ccc(F)cc2)c2ccc(F)cc2)cc1 [Compound P4] | -1.23
* CC(C)c1ccc(C(=O)NC/C=C\CNC(=O)CCCCC(c2ccc(F)cc2)c2ccc(F)cc2)cc1 [Compound P7] | -1.27
* O=C(CC(c1ccccc1)c1ccccc1)NCC#CCN(Cc1ccncc1)Cc1ccncc1 [Compound P30] | -0.48
* O=C(CCCCC(c1ccc(F)cc1)c1ccc(F)cc1)NC/C=C/CNC(=O)c1ccc(F)cc1 [Compound P20] | -0.87
* Cc1ccc(C(=O)NCC#CCNC(=O)CCCCC(c2ccc(F)cc2)c2ccc(F)cc2)cc1 [Compound P26] | -1.40
* O=C(CCCCC(c1ccc(F)cc1)c1ccc(F)cc1)NC/C=C\CNC(=O)COc1ccc(Cl)cc1 [Compound P6] | -1.57

Now let's try a different one.
Query CC(C)(C)c1cc(C(=O)NC/C=C\CNC(=O)CCCCC(c2ccc(F)cc2)c2ccc(F)cc2)cc(C(C)(C)C)c1O [Compound P3] yields log10(IC50) of -0.57
